molecular target: Metabotropic glutamate receptor 2 (Rattus norvegicus, UniProt P31421); experiment: Partial displacement of [3H]LY354740 from recombinant rat mGluR2
Sequence (P31421 whole entry): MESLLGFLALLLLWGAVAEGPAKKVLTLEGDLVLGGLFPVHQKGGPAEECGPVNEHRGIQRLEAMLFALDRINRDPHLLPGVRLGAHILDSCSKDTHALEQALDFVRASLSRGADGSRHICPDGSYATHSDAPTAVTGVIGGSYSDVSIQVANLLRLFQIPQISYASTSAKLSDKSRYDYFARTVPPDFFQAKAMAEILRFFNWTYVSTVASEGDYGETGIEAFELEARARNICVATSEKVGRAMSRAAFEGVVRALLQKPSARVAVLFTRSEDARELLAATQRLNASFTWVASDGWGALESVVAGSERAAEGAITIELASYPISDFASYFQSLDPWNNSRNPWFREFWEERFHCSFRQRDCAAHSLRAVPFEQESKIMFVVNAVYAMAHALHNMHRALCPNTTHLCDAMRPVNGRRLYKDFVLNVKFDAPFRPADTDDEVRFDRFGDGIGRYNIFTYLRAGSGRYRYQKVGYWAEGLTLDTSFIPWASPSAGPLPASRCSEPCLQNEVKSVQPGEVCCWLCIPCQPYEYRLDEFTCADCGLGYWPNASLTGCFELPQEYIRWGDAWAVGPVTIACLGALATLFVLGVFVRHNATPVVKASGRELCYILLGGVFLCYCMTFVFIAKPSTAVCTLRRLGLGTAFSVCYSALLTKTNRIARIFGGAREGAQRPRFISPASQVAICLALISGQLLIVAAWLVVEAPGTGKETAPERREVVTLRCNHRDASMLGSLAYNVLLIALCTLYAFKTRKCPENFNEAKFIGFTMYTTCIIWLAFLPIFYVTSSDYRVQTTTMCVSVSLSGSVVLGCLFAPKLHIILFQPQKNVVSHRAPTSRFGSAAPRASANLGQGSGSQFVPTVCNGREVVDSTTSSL
Reported IC50 by item:

Below, 5 compounds whose answers are already recorded.
{"smiles-repr": "COCc1cc(-c2cccc(C3=Nc4cc(C)c(C(F)(F)F)cc4NC(=O)C3)c2)ccn1", "IC50": "0.013 µM"}
{"smiles-repr": "O=C1CC(c2cccc(-c3ccncc3)c2)=Nc2ccc(C(F)(F)F)cc2N1", "IC50": "0.01 µM"}
{"smiles-repr": "Cc1ccc(-c2cccc(C3=Nc4cc(C)c(C(F)(F)F)cc4NC(=O)C3)c2)cn1", "IC50": "0.013 µM"}
{"smiles-repr": "Cc1cc2c(cc1C(F)(F)F)NC(=O)CC(c1cccc(-n3nncc3CO)c1)=N2", "IC50": "0.12 µM"}
{"smiles-repr": "Cc1cc2c(cc1C(F)(F)F)NC(=O)CC(c1cccc(-c3cccnn3)c1)=N2", "IC50": "0.128 µM"}

Please state recorded IC50 (tested on Metabotropic glutamate receptor 2 (Rattus norvegicus, UniProt P31421)) of Cc1cc(-c2cccc(C3=Nc4ccc(C(F)(F)F)cc4NC(=O)C3)c2)ccn1
0.018 µM

Observed IC50 on Metabotropic glutamate receptor 2 (Rattus norvegicus, UniProt P31421) for Cc1cc(-c2cccc(C3=Nc4cc(C)c(C(F)(F)F)cc4NC(=O)C3)c2)on1 , please.
0.005 µM

Record Cc1cc2c(cc1C(F)(F)F)NC(=O)CC(c1cccc(-c3ccc(N)nc3)c1)=N2 : what is its IC50 with Metabotropic glutamate receptor 2 (Rattus norvegicus, UniProt P31421)?
0.014 µM

Provide the documented IC50 with Metabotropic glutamate receptor 2 (Rattus norvegicus, UniProt P31421) as the system for COCc1cc(-c2cccc(C3=Nc4cc(C)c(C(F)(F)F)cc4NC(=O)C3)c2)cc(C)n1
0.008 µM

What is its IC50 for Metabotropic glutamate receptor 2 (Rattus norvegicus, UniProt P31421)? Entry: Cc1cc(-c2cccc(C3=Nc4cc(C)c(C(F)(F)F)cc4NC(=O)C3)c2)ccn1
0.004 µM

---

biological target: Cytochrome P450 3A4 (Homo sapiens, UniProt P08684)
Sequence (P08684 whole entry): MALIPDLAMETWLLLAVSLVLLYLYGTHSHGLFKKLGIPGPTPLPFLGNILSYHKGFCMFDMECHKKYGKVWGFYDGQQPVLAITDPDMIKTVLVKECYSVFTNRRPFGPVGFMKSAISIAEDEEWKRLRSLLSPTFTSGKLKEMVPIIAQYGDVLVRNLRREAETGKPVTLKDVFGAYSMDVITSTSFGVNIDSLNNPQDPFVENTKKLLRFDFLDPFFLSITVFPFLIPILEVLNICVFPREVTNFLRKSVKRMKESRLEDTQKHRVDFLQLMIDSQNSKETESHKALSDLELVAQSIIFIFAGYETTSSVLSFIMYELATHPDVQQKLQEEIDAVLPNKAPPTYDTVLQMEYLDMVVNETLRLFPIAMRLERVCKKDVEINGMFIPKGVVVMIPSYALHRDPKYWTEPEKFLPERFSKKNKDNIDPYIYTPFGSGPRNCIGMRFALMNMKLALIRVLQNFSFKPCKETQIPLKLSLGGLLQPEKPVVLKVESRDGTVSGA
experimental-endpoint: pIC50
Remember the convention: pIC50 equals -log10 of concentration in molar.

// lookup pIC50 for Cc1cc(-c2cccc(C3=Nc4cc(C)c(C(F)(F)F)cc4NC(=O)C3)c2)ccn1
5.72

---

biological target: Metabotropic glutamate receptor 2 (Rattus norvegicus, UniProt P31421); assay: Antagonist activity at recombinant rat mGluR2 expressed in forskolin-stimulated CHO cells assessed as inhibition of (1S,3R)-ACPD induced cAMP production; type: functional, cell-based
experimental-endpoint: pIC50
# log scale: pIC50 equals minus log10 of the concentration in mol/L

{"smiles-repr": "Cn1nccc1-c1cccc(C2=Nc3ccc(C(F)(F)F)cc3NC(=O)C2)c1", "experimental-endpoint": "pIC50", "val": 6.72}
{"smiles-repr": "Cc1cc2c(cc1C(F)(F)F)NC(=O)CC(c1cccc(-c3ccnc(C4CC4)c3)c1)=N2", "experimental-endpoint": "pIC50", "val": 8.22}
{"smiles-repr": "Cc1cc2c(cc1C(F)(F)F)NC(=O)CC(c1cccc(-c3cccnc3)c1)=N2", "experimental-endpoint": "pIC50", "val": 8.52}

# lookup: pIC50 of Cc1cc2c(cc1C(F)(F)F)NC(=O)CC(c1cccc(-c3ccnc(C#N)c3)c1)=N2
7.74

For COCc1cc(-c2cccc(C3=Nc4cc(C)c(C(F)(F)F)cc4NC(=O)C3)c2)ccn1 , what is its reported pIC50?
8.22

Give the measured pIC50 of Cc1cc2c(cc1C(F)(F)F)NC(=O)CC(c1cccc(-c3ccc(N)nc3)c1)=N2 .
6.80
